Test system: A673/TR/shEF
Experiment: cell viability (LOESS-normalised, relative to median of negative controls) (log2 ratio); higher = more viable cells (less compound effect), active = hit call of the paper (over 3 MAD below the median)
Conditions: 0.25 µM; library screen: screen1; EWS-FLI1 expression: high (no doxycycline); treatment time: 72 h
Hit rate of the full screen: of about 3,200 compounds, about 300 (9.4%) showed activity. Shown is part of a subset that was picked to be rich in actives.
READOUT NAME: cell viability (log2)

1. CC1=C(C(=O)OC2CCCC2)C(c2coc3ccccc3c2=O)C2=C(CCCC2=O)N1 (stereo not given)	0.0306
2. CC(C(=O)O)[C@H]1CCC2C3CC=C4C[C@@H](O)CC[C@]4(C)C3CC[C@@]21C (stereo not given in full)	0.0415
3. C=C(C)/C=C1/C=CC(=O)C(C)=C1	0.0888
4. COC(=O)[C@H]1[C@H]2C[C@H]3c4[nH]c5cc(OC)ccc5c4CCN3C[C@H]2C[C@@H](OC(=O)c2cc(OC)c(OC)c(OC)c2)[C@@H]1OC	0.121
5. O=C(Nc1ccccn1)c1cc(-c2ccccc2)nc2ccccc12	0.083
6. C[C@@H]1CC[C@@]2(OC1)O[C@H]1C[C@H]3[C@@H]4CC[C@@H]5C[C@@H](O)CC[C@]5(C)[C@H]4CC[C@]3(C)[C@H]1[C@@H]2C	0.0641
7. COc1cc(C)c2c(=O)c3c(O)cc(O)cc3oc2c1	-0.0797
8. COc1cc(/C=C(\C#N)C(N)=O)cc(CSc2nc3ccccc3s2)c1O	0.2
9. C[N+]1(C)C2CC[C@H]1CC(OC(=O)C(O)c1ccccc1)C2 (stereo not given in full)	0.0981
10. COC1=C[C@@H](C)[C@@H]2C[C@H]3OC(=O)C[C@H]4C(C)=C(OC)C(=O)[C@H]([C@@]2(C)C1=O)[C@@]34C	0.0742
11. COC(=O)Nc1ccc(S(=O)(=O)N2C(C)CCCC2C)cc1 (stereo not given)	0.0592
12. COc1cc(CN2CCN(Cc3cccc(Cl)c3)CC2)c([N+](=O)[O-])cc1OC	0.103
13. CC(C)N1C(=O)C(=Cc2ccc(F)cc2)SC1=S	0.0751
14. COCc1cc(O)c(O)c(O)c1-c1c(COC)cc(O)c(O)c1O	0.161
15. COCCOC(=O)C1=C(C)NC(=S)NC1c1ccccc1 (stereo not given)	0.0342
16. COC(=O)C[C@H]1C(C)(C)[C@@H](OC(C)=O)[C@@H]2CC3C4CC(=O)O[C@@H](c5ccoc5)[C@]4(C)CCC3[C@@]1(C)C2=O (stereo not given in full)	0.0705
17. N#CC(C#N)=C(N)/C(C#N)=C/c1cc(O)c(O)c(O)c1	0.296
18. O=C(O)c1cc2cc(Cl)ccc2[nH]1	0.0631
19. Cc1cc2ncc(-c3ccccc3)nc2cc1C	0.265
20. Cn1cnc([N+](=O)[O-])c1Sc1ncnc2nc[nH]c12	0.0615

###

Reported cell viability (log2) by item:
Test system: A673/TR/shEF
Test: cell viability (LOESS-normalised, relative to median of negative controls) (log2 ratio); higher = more viable cells (less compound effect), active = hit call of the paper (over 3 MAD below the median)
Settings: 0.025 µM; library screen: screen2; EWS-FLI1 expression: high (no doxycycline); treatment time: 72 h
Hit rate of the full screen: of about 3,200 compounds, about 300 (9.4%) showed activity. This excerpt belongs to a sample that is enriched for actives.
READOUT NAME: cell viability (log2)

1. CN(Cc1cnc2nc(N)nc(N)c2n1)c1ccc(C(=O)N[C@@H](CCC(=O)O)C(=O)O)cc1	0.0134
2. Nc1nc(=S)c2[nH]cnc2[nH]1	0.0835
3. C=C1C(=O)O[C@@H]2C[C@@]3(C)CCC[C@H](C)C3=C[C@H]12	0.148
4. C[C@H]1O[C@@H](n2cc(F)c(=O)[nH]c2=O)[C@H](O)[C@@H]1O	0.0333
5. CCCSc1ccc2nc(NC(=O)OC)[nH]c2c1	0.0864
6. CCN(CC)CCCC(C)Nc1ccnc2cc(Cl)ccc12 (stereo unspecified)	0.158
7. [Cl][Pt+2][Cl].[NH2-].[NH2-]	0.0701
8. O=c1[nH]cc(F)c(=O)[nH]1	0.207
9. COc1ccc2cc3[n+](cc2c1OC)CCc1cc2c(cc1-3)OCO2	0.0792
10. C[n+]1cc2c3c(ccc2c2ccc4cc5c(cc4c21)OCO5)OCO3	0.0722
11. S=c1nc[nH]c2nc[nH]c12	0.182
12. COc1c(C)c2c(c(O)c1C/C=C(\C)CCC(=O)O)C(=O)OC2	0.0161
13. O=c1[nH]c(=O)n([C@H]2C[C@H](O)[C@@H](CO)O2)cc1F	0.0911
14. CCc1nc(N)nc(N)c1-c1ccc(Cl)cc1	0.129
15. COC(=O)Nc1nc2ccc(Sc3ccccc3)cc2[nH]1	0.076
16. Nc1ncn([C@@H]2O[C@H](CO)[C@@H](O)[C@H]2O)c(=O)n1	0.00187

###

Test system: A673/TR/shEF
Assay: cell viability (LOESS-normalised, relative to median of negative controls) (log2 ratio); higher = more viable cells (less compound effect), active = hit call of the paper (over 3 MAD below the median)
Details: 0.25 µM; library screen: screen1; EWS-FLI1 expression: low (doxycycline-induced shRNA knockdown); treatment time: 72 h
Among all 3,200 compounds or so, about 300 (9.4%) showed activity. Only a selection was taken, and actives are over-represented in it overall.
READOUT NAME: cell viability (log2)

1) CC(C)[C@@H](C)C=C[C@@H](C)[C@H]1CC[C@H]2C3=CCC4CC(=O)CC[C@]4(C)[C@H]3CC[C@]12C (stereo not given in full)	0.0592 (inactive)
2) Cc1nnc(SCC(=O)N2c3ccccc3-c3c(ssc3=S)C2(C)C)s1	0.0648 (inactive)
3) C=CC(C)(C)c1c2c(c(O)c3c(=O)c4ccc(O)c(O)c4oc13)C=CC(C)(C)O2	0.182 (inactive)
4) O=c1cccc2ccc(O)c(O)c2c1O	-0.0442 (inactive)
5) NC(N)=NCCNS(=O)(=O)c1cccc2cnccc12	0.000334 (inactive)

###

Test system: A673/TR/shEF
Test: cell viability (LOESS-normalised, relative to median of negative controls) (log2 ratio); higher = more viable cells (less compound effect), active = hit call of the paper (over 3 MAD below the median)
Conditions: 0.25 µM; library screen: screen1; EWS-FLI1 expression: low (doxycycline-induced shRNA knockdown); treatment time: 72 h
Among all 3,200 compounds or so, about 300 (9.4%) showed activity. The entries come from a sample that favours actives as a whole.
READOUT NAME: cell viability (log2)

1. COc1cccc2c1CCC1CC(=O)CC[C@]21C (stereo partly drawn)	0.0827
2. CN1CCN(c2nc3ccccn3c(=O)c2/C=C2\SC(=S)N(CC3CCCO3)C2=O)CC1 (stereo not drawn)	0.0801
3. O=C(O)CSc1nnc(-c2ccc(Cl)cc2Cl)n1-c1ccccc1	0.165
4. CC(=O)OC1CCC2(C)C(CCC3C2CC(=O)C2(C)C3CC3OC4(CCC(C)CO4)C(C)C32)C1 (stereo not drawn)	0.0314
5. CCC(C)C(N)C1=NC(C(=O)N[C@@H](CC(C)C)C(=O)N[C@H](CCC(=O)O)C(=O)N[C@H](C(=O)N[C@H]2CCCCNC(=O)[C@H](CC(N)=O)NC(=O)[C@@H](CC(=O)O)NC(=O)[C@H](Cc3cnc[nH]3)NC(=O)[C@@H](Cc3ccccc3)NC(=O)[C@H]([C@@H](C)CC)NC(=O)[C@@H](CCCN)NC2=O)[C@@H](C)CC)CS1 (stereo partly drawn)	-0.0505
6. CCOc1cc(C(=O)Nc2ccc([N+](=O)[O-])cc2)cc(OCC)c1OCC	0.0461
7. CC1(C)S[C@@H]2[C@H](NC(=O)[C@H](N)c3ccc(O)cc3)C(=O)N2[C@H]1C(=O)O	0.0656
8. O=C1C=C(O)c2ccccc2C1=O	-0.00535
9. O=C(O[C@@H]1Cc2c(O)cc(O)cc2O[C@@H]1c1cc2cc([C@H]3Oc4cc(O)cc(O)c4C[C@H]3O)cc(=O)c(O)c2c(O)c1O)c1cc(O)c(O)c(O)c1	0.032
10. CSCCC(NC=O)C(=O)NC(C)C(=O)O (stereo not drawn)	0.0779
11. CC(=O)N1CCC[C@H]1C(=O)O	0.0212
12. CCSc1nnc(-c2ccc([N+](=O)[O-])cc2)n1-c1ccccc1	0.0888
13. CC1(C)S[C@@H]2[C@H](NC(=O)C(C(=O)O)c3ccccc3)C(=O)N2[C@H]1C(=O)O (stereo partly drawn)	0.0878
14. COc1cccc(N2C(=O)C(=Cc3cccc(O)c3)SC2=S)c1	0.0758
15. COC(=O)C[C@H]1C(C)(C)C(=O)[C@@H]2CC3=C4CC(OC)O[C@@H](c5ccoc5)[C@]4(C)CCC3[C@@]1(C)C2=O (stereo partly drawn)	0.14
16. CC(C)C[C@H](NC(=O)OCC1c2ccccc2-c2ccccc21)C(=O)O	0.0579
17. CS(=O)(=O)c1ccc2nc(NC(=O)c3cccc(Cl)c3)sc2c1	0.0657
18. c1coc(CN2CCN(Cc3ccc4ccccc4c3)CC2)c1	0.0071

Ref: the supplement of paper PMC6089552
